Sourced from patent US4939138A

- System: cyclooxygenase
- assay remarks: inhibition of cyclooxygenase assay (CO)
- Type: biochemical, mice
- applied conditions: 30 μM; negative values = increases over controls, not demonstrated to differ significantly
measured quantity: CO percent inhibition (% I) (%)
Record the value in %, omitting the unit from your answer.

Query: Quote CO percent inhibition (% I) reported for COc1ccc(C(=O)c2cn3c4c(cccc24)OCC3CN2CCOCC2)cc1 (stereo not shown) please.
Result: -8.9

Query: Quote CO percent inhibition (% I) reported for COc1ccc(C(=O)c2c(C)n3c4c(cccc24)OCC3CN2CCOCC2)cc1 (stereo not shown) please.
Result: 19

Query: Quote CO percent inhibition (% I) reported for Cc1c(C(=O)c2ccc3ncccc3c2)c2cccc3c2n1C(CN1CCOCC1)CO3 (stereo not shown) please.
Result: -26.2

Query: Quote CO percent inhibition (% I) reported for Cc1c(C(=O)c2cccc3ccccc23)c2cccc3c2n1C(CN1CCOCC1)CO3 (stereo not shown) please.
Result: -35
